Tgt: MAP4K4 (Homo sapiens)
Sequence (O95819 whole entry): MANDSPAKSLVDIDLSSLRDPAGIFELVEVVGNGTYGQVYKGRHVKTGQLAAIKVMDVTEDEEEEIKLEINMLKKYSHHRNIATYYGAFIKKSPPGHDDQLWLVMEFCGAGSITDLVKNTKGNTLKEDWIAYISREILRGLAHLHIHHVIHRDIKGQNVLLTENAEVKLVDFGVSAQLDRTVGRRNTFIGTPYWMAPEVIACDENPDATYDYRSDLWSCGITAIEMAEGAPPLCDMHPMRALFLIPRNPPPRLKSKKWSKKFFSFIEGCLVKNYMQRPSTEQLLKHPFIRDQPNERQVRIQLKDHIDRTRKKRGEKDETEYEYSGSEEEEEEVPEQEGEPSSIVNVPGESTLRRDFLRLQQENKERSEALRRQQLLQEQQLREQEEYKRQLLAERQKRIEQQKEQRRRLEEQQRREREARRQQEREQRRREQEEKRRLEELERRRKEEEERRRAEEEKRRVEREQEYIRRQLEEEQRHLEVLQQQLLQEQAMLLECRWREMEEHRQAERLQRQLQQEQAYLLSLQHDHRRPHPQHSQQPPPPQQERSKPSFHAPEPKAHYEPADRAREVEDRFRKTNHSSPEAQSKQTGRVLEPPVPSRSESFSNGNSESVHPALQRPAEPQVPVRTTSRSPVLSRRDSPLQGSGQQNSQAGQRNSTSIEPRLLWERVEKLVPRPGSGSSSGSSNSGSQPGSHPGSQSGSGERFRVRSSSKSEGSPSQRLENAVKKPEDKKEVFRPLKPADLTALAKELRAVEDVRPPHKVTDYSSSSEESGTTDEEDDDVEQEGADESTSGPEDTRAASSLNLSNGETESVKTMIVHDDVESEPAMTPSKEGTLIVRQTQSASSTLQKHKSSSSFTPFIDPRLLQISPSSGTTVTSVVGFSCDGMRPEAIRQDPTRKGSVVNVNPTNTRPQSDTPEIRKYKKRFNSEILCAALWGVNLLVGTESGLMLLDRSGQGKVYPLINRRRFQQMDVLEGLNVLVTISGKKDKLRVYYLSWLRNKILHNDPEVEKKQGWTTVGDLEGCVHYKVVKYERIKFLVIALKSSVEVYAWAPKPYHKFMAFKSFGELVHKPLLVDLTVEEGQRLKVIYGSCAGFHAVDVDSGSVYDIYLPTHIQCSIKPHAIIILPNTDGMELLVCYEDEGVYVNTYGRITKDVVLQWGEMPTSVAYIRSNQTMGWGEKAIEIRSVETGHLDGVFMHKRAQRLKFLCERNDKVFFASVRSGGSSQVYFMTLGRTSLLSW
Assay Notes: MAP4K4 kinase assay (in-house)
Format: biochemical
pIC50: −log10 of the molar value.
Parameter Measured: pIC50

Guide cases for pIC50, answers given:
Smiles Data	pIC50
COc1cccc2cc(C(=O)c3ccc4[nH]nc(C)c4c3)[nH]c12	6.19
COc1ccc2[nH]c(C(=O)c3ccc4[nH]nnc4c3)cc2c1	6.24

(1) COc1ccc2[nH]c(C(=O)c3ccc4[nH]cc(Cl)c4c3)cc2c1
(2) COc1ccc2[nH]c(C(=O)c3ccc4[nH]nc(C)c4c3)cc2c1
(3) COc1cc2cc(C(=O)c3ccc4[nH]nc(C)c4c3)[nH]c2cn1
(4) COc1ccc2[nH]c(C(=O)c3cnc4[nH]ccc4c3)cc2c1
(5) COc1ccc2[nH]c(C(=O)c3ccc4[nH]c(C(F)(F)F)nc4c3)cc2c1
Q. Order the 5 compounds from highest to lowest pIC50. Field: ranking. Enter the labels in the order requested.
A. 3, 4, 2, 1, 5
(3: 7.89, 4: 7.34, 2: 6.85, 1: 5.77, 5: 5.12)

(A) CCc1n[nH]c2ccc(C(=O)c3cc4cc(OC)ccc4[nH]3)cc12
(B) COc1ccc2[nH]c(C(=O)c3ccc4[nH]nc(CN5CCOCC5)c4c3)cc2c1
(C) COc1ccc2[nH]c(C(=O)c3ccc4[nH]cc(C)c4c3)cc2c1
Q. Provide the items ranked by increasing pIC50. Field: ranking. Enter the labels in the order requested.
A. B, C, A

---

Test system: OVCAR4
Assay Notes: Activity against cancer cell lines
Assay type: cell-based
Assay Setup: OVCAR4
Parameter Measured: IC50 (nM)

Molecule	Tgt	Output Unit	IC50
COc1cccc2c1C(=O)c1c(O)c3c(c(O)c1C2=O)C[C@@](O)(C(=O)CO)C[C@@H]3O[C@H]1C[C@H](N)[C@H](O)[C@H](C)O1 [Doxorubicin, reference compound]	OVCAR4	nM	1500

(I) COc1ccc2[nH]c(C(=NO)c3ccc4[nH]ccc4c3)cc2c1
(II) COc1ccc2[nH]c(C(=O)c3ccc4[nH]ccc4c3)cc2c1
Q. Could you determine which record has the numerically smaller IC50? Candidates: I and II // return label of chosen record
A. II

---

System: MDAMB435
Assay Notes: Activity against cancer cell lines
Format: cell-based
Assay Setup: Homo sapiens, MDA-MB-435
pIC50: −log10 of the molar value.
Parameter Measured: pIC50

Compound	Tgt	pIC50
COc1ccc2[nH]c(C(=O)c3ccc4[nH]ccc4c3)cc2c1 [Cmpd 1]	MDAMB435	7.68

(a) COc1ccc2[nH]c(C(=NO)c3ccc4[nH]ccc4c3)cc2c1 [Cmpd 37]
(b) COc1cccc2c1C(=O)c1c(O)c3c(c(O)c1C2=O)C[C@@](O)(C(=O)CO)C[C@@H]3O[C@H]1C[C@H](N)[C@H](O)[C@H](C)O1 [Doxorubicin, reference compound]
Q. Which record would sort first by descending pIC50, a or b ? // return label of chosen record
A. a

---

Assay Notes: In vivo pharmacokinetic study, oral formulations
Assay Setup: mouse, plasma, 60 mg/kg, mice, oral 60 mg/kg in PTTW, 24 h
Parameter Measured: concentration at 24 h (ng/mL)
Expressed in ng/mL, but write only the number.

The molecule `COc1ccc2[nH]c(C(=O)c3ccc4[nH]nc(C)c4c3)cc2c1` showed concentration at 24 h equal to 15.4

Data credit: patent US10000451B2
